test system: MCF-7 (breast carcinoma); assay: Proliferation assay (MTT), MCF-7 cells; type: cell-based; details: c = 10^-4 M, 72 h incubation, absorbance 570 nm, quadruplicate in three individual experiments

substance	tested_system	PG(%) MCF-7 (percentage of growth)
H-Phe-Gly-Met-Met-Met-OH [Compound 12]	MCF-7 (breast carcinoma)	86
H-Tyr-Gly-Gly-Phe-Met-OH [OGF, native opioid growth factor (OGF), Met-enkephalin]	MCF-7 (breast carcinoma)	92
H-Phe-Ala-Met-Met-Met-OH [Compound 10]	MCF-7 (breast carcinoma)	74
H-Tyr-Ala-Met-Met-Met-OH [Compound 14]	MCF-7 (breast carcinoma)	71
H-Phe-Ala-Met-Met-OH [Compound 13]	MCF-7 (breast carcinoma)	68

Hey, just so you know, these numbers are from paper PMC3257078.
